Target: GST-Bfl-1 (Homo sapiens)
Construct: lacking their C-terminal transmembrane domains (about the last 20 amino acids) (“ΔTM”); made in house; host or cells: XL-1 Blue E. coli, pGEX 4T-1
Sequence (Q16548 1-155 limits assumed): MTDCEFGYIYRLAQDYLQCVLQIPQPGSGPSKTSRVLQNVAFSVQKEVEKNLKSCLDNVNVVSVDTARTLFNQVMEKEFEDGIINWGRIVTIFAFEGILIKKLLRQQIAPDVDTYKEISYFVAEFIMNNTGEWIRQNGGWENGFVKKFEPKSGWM
Assay: Bfl-1/FITC-Bid BH3 competitive fluorescence polarization assay
Type: binding
Conditions: primary HTS hits, MLSCN library (PubChem SIDs), Table 5B
Label Criterion met when FRatio >= 0.7; otherwise Criterion not met.

> print(dat)
                               compound  discrete.label
1  O=C(COC(=O)Cc1ccccc1)Nc1ncc(Cl)cc1Cl   Criterion met

Reported FRatio reaches at least 0.7 for "FC(F)(F)c1cnc(Nc2ccc(N3CCOCC3)cc2)c(Cl)c1" ? Criterion not met

Say whether "CCOc1ccc(C(=O)Nc2ccc(N3CCN(C)CC3)cc2)cc1Br" shows FRatio of 0.7 or more. Criterion not met

Item "CCc1ccccc1NC(=O)c1cc2ncc(Br)cn2n1" with FRatio of 0.7 or above? Criterion met

Kindly determine if FRatio recorded for "Cc1ccc(C)n1-c1sccc1C(=O)O" is above or exactly 0.7. Criterion met

Hi, just wondering whether "O=C(Cc1ccccc1)Nc1ccc(N2CCCC2)cc1" shows FRatio of 0.7 or higher. Criterion met

Would you say CC(C)CN(C(=O)COC(=O)c1cc2c(s1)CCC2)C1CCS(=O)(=O)C1 (stereo not drawn) shows FRatio at minimum 0.7? Criterion not met

Has "CC(=N)/C(C#N)=C(/O)CSc1nnc(NC(C)C)s1" a recorded FRatio greater than or equal to 0.7? Criterion not met

Would you say "Brc1ccc2ncnc(Nc3ccc(N4CCOCC4)cc3)c2c1" shows FRatio at minimum 0.7? Criterion met
